B1: Proto-oncogene vav, residues 782 to 842; numbered along this chain, P15498 (parent)
chain: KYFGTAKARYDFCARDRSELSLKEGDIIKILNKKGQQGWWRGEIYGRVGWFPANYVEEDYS

Variants of: B1
EXPERIMENTAL DETAILS: abundance fitness (aPCA) (normalised: wild type 0, dead -1); higher = more abundant; growth selection in yeast, the domain comes from the species named
TEST SETTINGS: Homo sapiens
I'd be grateful if you could share measured abundance fitness for these entries.
Format: numeric value only, no unit, no commentary.

For the variant KYFGTAKARYDFCARDRSQLSLKEGDIIKILNKKGQQGWWRGEIYGRVGWFPANYVEEDYS [E19Q] , report abundance fitness. -0.103

For the variant KYFGTAKARYDFCARDRSELSLKEGDIIKILNKKGQQGWWNGEIYGRVGWFPANYVEEDYS [R41N] , report abundance fitness. -0.375

For the variant KYFGTAKARYDFCARDRSELSLKEGDIIKILNKKGQQGWIRGEIYGRVGWFPANYVEEDYS [W40I] , report abundance fitness. -0.385

For the variant KYFGTAKARYDFCARDRSELSLKEGDIIKILNKKGQQGWPRGEIYGRVGWFPANYVEEDYS [W40P] , report abundance fitness. -0.876

For the variant WYFGTAKARYDFCARDRSELSLKEGDIIKILNKKGQQGWWRGEIYGRVGWFPANYVEEDYS [K1W] , report abundance fitness. -0.474

For the variant KYFGTAKARYDFCARDRSELSLKEGDIIKILNKKGQQGWWRSEIYGRVGWFPANYVEEDYS [G42S] , report abundance fitness. -0.787

For the variant KYFGTAKARYDFCARDRSELSLKEGDIIKILNKKGQQGWWRGEISGRVGWFPANYVEEDYS [Y45S] , report abundance fitness. 0.164

For the variant KYFGTAKAHYDFCARDRSELSLKEGDIIKILNKKGQQGWWRGEIYGRVGWFPANYVEEDYS [R9H] , report abundance fitness. -0.505

For the variant KYFGTAKARYDFCARDRSELSLKEGVIIKILNKKGQQGWWRGEIYGRVGWFPANYVEEDYS [D26V] , report abundance fitness. -0.559

For the variant KYFGTAKARYDFCARDRSEYSLKEGDIIKILNKKGQQGWWRGEIYGRVGWFPANYVEEDYS [L20Y] , report abundance fitness. -0.64

For the variant KPFGTAKARYDFCARDRSELSLKEGDIIKILNKKGQQGWWRGEIYGRVGWFPANYVEEDYS [Y2P] , report abundance fitness. -0.212

For the variant KRFGTAKARYDFCARDRSELSLKEGDIIKILNKKGQQGWWRGEIYGRVGWFPANYVEEDYS [Y2R] , report abundance fitness. -0.226
